Source of measurements: the supplement of paper PMC7877785

Quick list: self-splicing fitness (ln) per entry.
test: self-splicing fitness, log relative to wild type (ln ratio); higher = more splicing; Tetrahymena group I intron in knt gene, E. coli kanamycin selection, DiMSum; sequences stand for … in CUCUCU…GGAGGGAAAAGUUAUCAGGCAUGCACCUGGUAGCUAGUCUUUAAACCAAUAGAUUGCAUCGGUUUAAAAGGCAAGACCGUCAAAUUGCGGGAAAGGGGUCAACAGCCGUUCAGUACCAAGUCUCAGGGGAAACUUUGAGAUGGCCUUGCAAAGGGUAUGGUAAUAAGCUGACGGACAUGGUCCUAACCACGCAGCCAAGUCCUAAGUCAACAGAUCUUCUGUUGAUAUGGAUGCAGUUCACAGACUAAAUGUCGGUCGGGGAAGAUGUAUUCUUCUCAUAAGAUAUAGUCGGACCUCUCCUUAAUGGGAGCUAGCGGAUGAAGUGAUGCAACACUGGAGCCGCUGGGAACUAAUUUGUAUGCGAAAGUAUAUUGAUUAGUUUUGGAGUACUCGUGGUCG; settings: 37 °C;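 note: selection with 25 µg/mL kanamycin versus none on LB agar overnight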
Give the value as a plain number.

Consider the following illustrative entries.
GGCAAGCAAUAUUACGAGGG | -2.34
ACGCAGCAAUAUUACGUAAC | -2.37
UACAAGCAAUAUUACGCUGC | -0.919
UAGCAGCAAUAUUACGCGUU | -1.24
AACAAGCAAUAUUACGACGA | -0.468

stdin: Reported self-splicing fitness (ln), sequence GACCAGCAAUAUUACGGGUG : ____
stdout: -1.36
